Hey, just so you know, these numbers are from ChEMBL document CHEMBL5346907.

# assay: Tmax in Sprague-Dawley rat at 2 mg/kg, iv
# Type: ADME, organism-based
# test_settings: in vivo
property: Tmax (min)

1. NC(=O)c1cccc(-c2cnc3[nH]ccc3c2)c1 = 4.98

###

# assay: MRT in Sprague-Dawley rat at 10 mg/kg, po
# Type: ADME, organism-based
# test_settings: in vivo
property: MRT (h)

1. NC(=O)c1cccc(-c2cnc3[nH]ccc3c2)c1 = 2.47

###

# assay: Cmax in Sprague-Dawley rat at 10 mg/kg, po
# Assay type: ADME, organism-based
# Set-up: dose 10 mg/kg, route po
# test_settings: in vivo
property: Cmax

1) NC(=O)c1cccc(-c2cnc3[nH]ccc3c2)c1 = 206 ng/mL

###

# assay: AUC (0 to infinity) in Sprague-Dawley rat at 10 mg/kg, po
# Format: ADME, organism-based
# Parameters: dose 10 mg/kg, route po
# test_settings: in vivo
property: AUC(0-inf) (ng·h/mL)

1. NC(=O)c1cccc(-c2cnc3[nH]ccc3c2)c1 = 434

###

# system_name: CDK9/cyclin T1 (Homo sapiens, UniProt P50750)
# Sequence (O60563 whole entry): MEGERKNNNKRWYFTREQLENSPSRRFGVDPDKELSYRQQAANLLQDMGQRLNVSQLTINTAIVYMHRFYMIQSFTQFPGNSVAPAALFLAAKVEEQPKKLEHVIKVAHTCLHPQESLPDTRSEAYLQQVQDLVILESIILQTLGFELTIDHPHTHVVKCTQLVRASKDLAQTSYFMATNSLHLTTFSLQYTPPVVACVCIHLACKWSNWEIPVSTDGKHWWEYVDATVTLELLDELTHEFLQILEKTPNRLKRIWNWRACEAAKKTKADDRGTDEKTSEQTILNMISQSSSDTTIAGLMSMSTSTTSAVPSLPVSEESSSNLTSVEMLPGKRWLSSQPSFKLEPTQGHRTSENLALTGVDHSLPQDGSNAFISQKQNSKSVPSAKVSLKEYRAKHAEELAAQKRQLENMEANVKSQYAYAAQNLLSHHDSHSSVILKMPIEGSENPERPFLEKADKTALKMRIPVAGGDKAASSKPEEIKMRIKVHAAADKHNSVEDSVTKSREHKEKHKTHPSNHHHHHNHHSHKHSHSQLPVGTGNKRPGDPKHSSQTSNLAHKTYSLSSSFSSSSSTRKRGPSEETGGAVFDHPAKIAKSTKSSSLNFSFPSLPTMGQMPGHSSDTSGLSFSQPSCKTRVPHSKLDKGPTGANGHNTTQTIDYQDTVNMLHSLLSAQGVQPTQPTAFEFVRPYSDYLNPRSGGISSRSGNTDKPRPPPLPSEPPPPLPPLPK
# Sequence (P50750 whole entry): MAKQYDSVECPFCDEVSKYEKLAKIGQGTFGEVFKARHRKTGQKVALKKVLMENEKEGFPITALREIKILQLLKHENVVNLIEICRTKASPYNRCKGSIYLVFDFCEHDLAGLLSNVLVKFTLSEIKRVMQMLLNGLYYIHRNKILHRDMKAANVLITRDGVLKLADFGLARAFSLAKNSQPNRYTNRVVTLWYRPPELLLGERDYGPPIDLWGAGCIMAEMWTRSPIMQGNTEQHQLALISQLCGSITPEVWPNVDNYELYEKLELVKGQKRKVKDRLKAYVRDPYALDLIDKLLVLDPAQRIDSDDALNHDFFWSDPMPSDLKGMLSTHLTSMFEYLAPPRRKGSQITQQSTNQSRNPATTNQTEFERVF
# assay: Inhibition of CDK9/Cyclin T1 (unknown origin) preincubated for 10 mins followed by substrate addition measured for 60 to 120 mins by HTRF assay
property: IC50 (nM)

1. NC(=O)c1cccc(-c2cnc3[nH]ccc3c2)c1 = 711

###

# assay: AUC (0 to infinity) in Sprague-Dawley rat at 2 mg/kg, iv
# Assay type: ADME, organism-based
# Design: dose 2 mg/kg, route iv
# test_settings: in vivo
property: AUC(0-inf) (ng·h/mL)

1. NC(=O)c1cccc(-c2cnc3[nH]ccc3c2)c1 = 310

###

# assay: Bioavailability in Sprague-Dawley rat at 10 mg/kg, po
# Type: ADME, organism-based
# test_settings: in vivo
property: bioavailability (%)

1) NC(=O)c1cccc(-c2cnc3[nH]ccc3c2)c1 = 28

###

# system_name: Cyclin-dependent kinase 8 (Homo sapiens, UniProt P49336)
# Sequence (P49336 whole entry): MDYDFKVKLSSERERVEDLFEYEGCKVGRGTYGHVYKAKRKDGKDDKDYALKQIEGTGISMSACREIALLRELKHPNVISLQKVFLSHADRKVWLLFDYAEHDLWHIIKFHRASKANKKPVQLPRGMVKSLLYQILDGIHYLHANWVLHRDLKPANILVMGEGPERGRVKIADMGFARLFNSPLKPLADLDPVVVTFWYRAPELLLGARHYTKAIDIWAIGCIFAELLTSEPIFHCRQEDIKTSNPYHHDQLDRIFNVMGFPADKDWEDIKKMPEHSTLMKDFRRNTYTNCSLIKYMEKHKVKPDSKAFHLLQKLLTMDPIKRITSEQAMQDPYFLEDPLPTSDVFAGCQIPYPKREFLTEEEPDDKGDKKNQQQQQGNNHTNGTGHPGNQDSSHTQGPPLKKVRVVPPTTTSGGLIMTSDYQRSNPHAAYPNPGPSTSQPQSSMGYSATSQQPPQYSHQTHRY
pIC50: −log10 of the molar value.
property: pIC50

1. NC(=O)c1cccc(-c2cnc3[nH]ccc3c2)c1 = 7.28

###

# assay: Cmax in Sprague-Dawley rat at 2 mg/kg, iv
# Format: ADME, organism-based
# Set-up: dose 2 mg/kg, route iv
# test_settings: in vivo
property: Cmax (ng/mL)

1. NC(=O)c1cccc(-c2cnc3[nH]ccc3c2)c1 = 231

###

# system_name: CDK6/cyclin D1 (Homo sapiens, UniProt Q00534)
# Sequence (P24385 whole entry): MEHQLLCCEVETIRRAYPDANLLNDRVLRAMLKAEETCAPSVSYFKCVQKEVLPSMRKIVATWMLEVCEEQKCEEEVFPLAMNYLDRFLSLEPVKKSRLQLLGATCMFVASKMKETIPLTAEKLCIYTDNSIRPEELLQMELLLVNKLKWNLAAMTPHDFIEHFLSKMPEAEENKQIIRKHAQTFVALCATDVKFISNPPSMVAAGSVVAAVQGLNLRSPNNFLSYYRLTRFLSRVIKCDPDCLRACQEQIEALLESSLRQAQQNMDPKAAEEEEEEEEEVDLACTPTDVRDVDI
# Sequence (Q00534 whole entry): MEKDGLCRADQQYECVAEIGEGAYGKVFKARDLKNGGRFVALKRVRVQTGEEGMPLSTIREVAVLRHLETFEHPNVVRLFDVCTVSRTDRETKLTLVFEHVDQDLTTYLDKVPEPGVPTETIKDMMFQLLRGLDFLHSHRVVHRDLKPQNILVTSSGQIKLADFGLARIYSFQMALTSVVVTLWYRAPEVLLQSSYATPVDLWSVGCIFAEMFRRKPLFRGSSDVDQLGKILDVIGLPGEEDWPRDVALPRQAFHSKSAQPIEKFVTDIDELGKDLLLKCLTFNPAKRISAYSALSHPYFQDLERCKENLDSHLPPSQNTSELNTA
# assay: Inhibition of CDK6/Cyclin D1 (unknown origin) preincubated for 10 mins followed by substrate addition measured for 60 to 120 mins by HTRF assay
property: IC50 (nM)

1) NC(=O)c1cccc(-c2cnc3[nH]ccc3c2)c1 = 594

###

# assay: Clearance in Sprague-Dawley rat at 10 mg/kg, po
# Assay type: ADME, organism-based
# test_settings: in vivo
property: CL/F

1. NC(=O)c1cccc(-c2cnc3[nH]ccc3c2)c1 = 285 mL/min/kg
